# FACS-Seq fitted mean (log10) listing for each entry below
B1: library; a variant is named by its letters at N, in order (parent)
chain: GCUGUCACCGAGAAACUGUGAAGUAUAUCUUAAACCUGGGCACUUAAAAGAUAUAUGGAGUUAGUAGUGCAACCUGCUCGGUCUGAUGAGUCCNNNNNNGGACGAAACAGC

Variants of: B1
ASSAY INFO: FACS-Seq fitted mean relative fluorescence mCherry/BFP with ligand (log10 relative fluorescence); HEK293T; ligand: cyclic di-GMP (c-di-GMP-II aptamer); ligand concentration (+) FACS-Seq: 1 mM; higher = higher reporter protein expression
CONDITION DESCRIPTION: ligand present: yes
Output spec: single numeric token, no unit.

The examples below pair each entry with its known result.
| MUTATION NOTATION | FACS-Seq fitted mean (log10) |
| --- | --- |
| CGGUAA | -0.41 |
| GAUGUA | -0.166 |
| UAUGAC | 0.133 |
| GAACUA | 0.0146 |
| UUAAGA | 0.2 |

Looking for the measured FACS-Seq fitted mean (log10) of AGUGAC , can you help?
-0.00165

Same for CGCUAC
0.045

Also need UUUAAC , thanks.
0.264

Okay, and AGCACG ?
0.065

For GAUCGA then?
-0.425
